# Test system: HAL-01 (B-Lymphoblastic Leukemia)
# test: combination Emax (second highest fraction inhibited in the dose matrix, 72 h); higher = more inhibition; extreme values may be limits of the assay
measured metric: combination Emax

>>> value_measured("Cc1c2c(nn1C)CSCc1cc(n(C)n1)CSc1cc(c3ccccc3c1)OCCCc1c(C(=O)O)n(C)c3c-2c(Cl)ccc13 [AZD5991] + CS(=O)(=O)CCNCc1ccc(-c2ccc3ncnc(Nc4ccc(OCc5cccc(F)c5)c(Cl)c4)c3c2)o1 [Lapatinib] (first compound max 1 µM, 7x7, partner max 10 µM)")
0.965
>>> value_measured("C=CCn1c(=O)c2cnc(Nc3ccc(N4CCN(C)CC4)cc3)nc2n1-c1cccc(C(C)(C)O)n1 [AZD1775] + Nc1ccn([C@@H]2O[C@H](CO)[C@@H](O)C2(F)F)c(=O)n1 [Gemcitabine] (first compound max 1 µM, partner max 0.3 µM)")
1
>>> value_measured("COc1nnc2ccc(N3CCC(c4ccc(OCCN5CCN(C)C(=O)[C@H]5C)cc4)CC3)nn12 [AZD5153] + Cn1cnc2c(F)c(Nc3ccc(Br)cc3Cl)c(C(=O)NOCCO)cc21 [Selumetinib] (first compound max 1 µM, 7x7, partner max 10 µM)")
0.849
>>> value_measured("C[C@@H](Oc1cc(-c2cnn(C3CCNCC3)c2)cnc1N)c1c(Cl)ccc(F)c1Cl [Crizotinib] + CC1=C(C(=CC=C1)Cl)NC(=O)C2=CN=C(S2)NC3=CC(=NC(=N3)C)N4CCN(CC4)CCO [Dasatinib] (first compound max 10 µM, 7x7, partner max 2 µM)")
0.961
>>> value_measured("NC1(C(=O)N[C@@H](CCO)c2ccc(Cl)cc2)CCN(c2ncnc3[nH]ccc23)CC1 [Capivasertib] + CCN(CCO)CCCOc1ccc2c(Nc3cc(CC(=O)Nc4cccc(F)c4)[nH]n3)ncnc2c1 [AZD2811] (first compound max 10 µM, 7x7, partner max 1 µM)")
0.464
>>> value_measured("CN(C)CCCOc1ccc(-c2ccc3ncc4c(c3c2)n(C2CCOCC2)c(=O)n4C)cn1 [AZD0156] + CCN(CCO)CCCOc1ccc2c(Nc3cc(CC(=O)Nc4cccc(F)c4)[nH]n3)ncnc2c1 [AZD2811] (first compound max 1 µM, 7x7, partner max 1 µM)")
0.435
>>> value_measured("COc1cccc(OCCCN)c1-c1cc(Nc2cnc(C#N)cn2)n[nH]1 [Prexasertib] + O=C(c1cc(Cc2n[nH]c(=O)c3ccccc23)ccc1F)N1CCN(C(=O)C2CC2)CC1 [Olaparib] (first compound max 1 µM, 7x7, partner max 10 µM)")
1
>>> value_measured("CN(C)CCCOc1ccc(-c2ccc3ncc4c(c3c2)n(C2CCOCC2)c(=O)n4C)cn1 [AZD0156] + C[C@@H]1COCCN1C2=NC(=NC(=C2)C3(CC3)[S@](=N)(=O)C)C4=C5C=CNC5=NC=C4 [AZD6738] (first compound max 1 µM, 7x7, partner max 10 µM)")
0.988
>>> value_measured("Cc1c2c(nn1C)CSCc1cc(n(C)n1)CSc1cc(c3ccccc3c1)OCCCc1c(C(=O)O)n(C)c3c-2c(Cl)ccc13 [AZD5991] + Cc1cc2ncnn2cc1Nc1ncc2c(n1)n(C1CCOCC1)c(=O)n2C [AZD7648] (first compound max 1 µM, 7x7, partner max 10 µM)")
0.704
>>> value_measured("COc1nnc2ccc(N3CCC(c4ccc(OCCN5CCN(C)C(=O)[C@H]5C)cc4)CC3)nn12 [AZD5153] + C[C@@H]1COCCN1C2=NC(=NC(=C2)C3(CC3)[S@](=N)(=O)C)C4=C5C=CNC5=NC=C4 [AZD6738] (first compound max 1 µM, 7x7, partner max 10 µM)")
0.965
>>> value_measured("Cc1cc2ncnn2cc1Nc1ncc2c(n1)n(C1CCOCC1)c(=O)n2C [AZD7648] + O=C(c1cc(Cc2n[nH]c(=O)c3ccccc23)ccc1F)N1CCN(C(=O)C2CC2)CC1 [Olaparib] (first compound max 10 µM, 7x7, partner max 10 µM)")
0.472
>>> value_measured("NC1(C(=O)N[C@@H](CCO)c2ccc(Cl)cc2)CCN(c2ncnc3[nH]ccc23)CC1 [Capivasertib] + CC(=O)c1c(C)c2cnc(Nc3ccc(N4CCNCC4)cn3)nc2n(C2CCCC2)c1=O [Palbociclib] (first compound max 10 µM, 7x7, partner max 10 µM)")
0.69

Hello, the source for this data is the supplement of paper PMC11061612, in case you need it.
